assay: Cytotoxicity against mouse L5178Y cells assessed as cell viability at 2.5 uM after 24 hrs by MTT assay; format: cell-based; conditions: read-out: Activity
# viability at 24 h, 2.5 µM values compiled below
READOUT NAME: viability at 24 h, 2.5 µM (%)

INSERT INTO measurements (molecule, units_text, number) VALUES
  ('CCOC(=O)C1=CN(Cc2ccc(OC)cc2)C=CC1c1ccccc1 (configuration not stated)', '%', 97),
  ('COC(=O)C1=CN(Cc2ccc(C)cc2)C=CC1c1ccccc1 (configuration not stated)', '%', 95);

====

biological target: ATP-dependent translocase ABCB1 (Homo sapiens); test: Inhibition of human MDR1 expressed in mouse L5178Y cells assessed as […] by measuring fluorescence activity ratio at 1 uM preincubated for 10 mins measured after 40 mins relative to control; type: cell-based
Sequence (P08183 whole entry): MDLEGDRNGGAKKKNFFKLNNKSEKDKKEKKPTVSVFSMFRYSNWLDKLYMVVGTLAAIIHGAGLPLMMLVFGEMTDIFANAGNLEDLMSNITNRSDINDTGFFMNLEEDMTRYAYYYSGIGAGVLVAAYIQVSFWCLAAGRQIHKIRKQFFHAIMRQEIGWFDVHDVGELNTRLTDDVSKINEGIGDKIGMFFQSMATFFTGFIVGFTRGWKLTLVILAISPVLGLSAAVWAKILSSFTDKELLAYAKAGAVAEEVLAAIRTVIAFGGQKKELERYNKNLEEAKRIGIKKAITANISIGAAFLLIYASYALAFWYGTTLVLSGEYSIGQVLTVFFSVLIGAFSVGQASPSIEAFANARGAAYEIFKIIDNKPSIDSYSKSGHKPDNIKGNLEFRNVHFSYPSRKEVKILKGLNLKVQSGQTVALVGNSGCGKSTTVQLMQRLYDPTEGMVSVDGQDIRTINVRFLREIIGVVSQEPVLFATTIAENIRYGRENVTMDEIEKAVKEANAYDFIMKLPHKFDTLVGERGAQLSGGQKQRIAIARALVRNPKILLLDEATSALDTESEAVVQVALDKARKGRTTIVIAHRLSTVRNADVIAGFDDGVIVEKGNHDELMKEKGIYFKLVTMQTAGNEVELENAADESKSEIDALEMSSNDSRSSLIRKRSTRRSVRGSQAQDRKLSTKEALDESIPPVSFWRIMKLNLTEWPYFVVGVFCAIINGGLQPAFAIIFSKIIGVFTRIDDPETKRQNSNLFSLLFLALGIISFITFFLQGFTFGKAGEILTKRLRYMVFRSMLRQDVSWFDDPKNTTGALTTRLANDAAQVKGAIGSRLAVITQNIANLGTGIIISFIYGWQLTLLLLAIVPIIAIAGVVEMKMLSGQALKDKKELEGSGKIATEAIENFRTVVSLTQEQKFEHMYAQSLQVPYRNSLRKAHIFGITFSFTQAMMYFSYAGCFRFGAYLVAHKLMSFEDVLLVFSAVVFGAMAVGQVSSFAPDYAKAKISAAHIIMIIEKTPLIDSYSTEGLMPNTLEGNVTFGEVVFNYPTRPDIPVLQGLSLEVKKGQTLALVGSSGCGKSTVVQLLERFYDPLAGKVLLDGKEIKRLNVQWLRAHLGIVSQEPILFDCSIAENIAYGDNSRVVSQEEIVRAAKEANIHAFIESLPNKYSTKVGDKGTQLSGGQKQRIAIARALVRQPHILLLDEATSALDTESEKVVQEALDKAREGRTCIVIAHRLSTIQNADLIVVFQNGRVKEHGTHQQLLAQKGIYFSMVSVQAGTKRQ
READOUT NAME: RFU

INSERT INTO results (compound, readout_name, number) VALUES
  ('COc1ccc(CCN(C)CCCC(C#N)(c2ccc(OC)c(OC)c2)C(C)C)cc1OC (configuration not stated) [VERAPAMIL]', 'RFU', 0.89),
  ('COC(=O)C1=CN(Cc2ccccc2OC)C=CC1c1ccccc1 (configuration not stated)', 'RFU', 1.82),
  ('CCOC(=O)C1=CN(Cc2ccccc2)C=CC1c1cccc(Br)c1 (configuration not stated)', 'RFU', 1.27),
  ('CCOC(=O)C1=CN(Cc2ccccc2)C=CC1c1ccc(C)cc1 (configuration not stated)', 'RFU', 1.34),
  ('CCOC(=O)C1=CN(Cc2ccccc2)C=CC1c1cccc(C(F)(F)F)c1 (configuration not stated)', 'RFU', 1.17),
  ('COC(=O)C1=CN(Cc2ccc(OC)cc2)C=CC1c1ccccc1 (configuration not stated)', 'RFU', 1.5),
  ('COC(=O)C1=CN(Cc2ccccc2)C=CC1c1ccc(OC)cc1 (configuration not stated)', 'RFU', 0.85),
  ('CCOC(=O)C1=CN(Cc2ccc(OC)cc2)C=CC1c1ccccc1 (configuration not stated)', 'RFU', 1.32),
  ('COC(=O)C1=CN(Cc2ccccc2)C=CC1c1cccc(Br)c1 (configuration not stated)', 'RFU', 1.05),
  ('CCOC(=O)C1=CN(Cc2cccc3ccccc23)C=CC1c1ccccc1 (configuration not stated)', 'RFU', 1.28),
  ('CCOC(=O)C1=CN(Cc2ccccc2OC)C=CC1c1ccccc1 (configuration not stated)', 'RFU', 1.72),
  ('CCOC(=O)C1=CN(Cc2ccccc2)C=CC1c1ccccc1OC (configuration not stated)', 'RFU', 1.18);
